- tested.target: BACE1 (Homo sapiens, UniProt P56817)
- Sequence (P56817 46-501, species assumed): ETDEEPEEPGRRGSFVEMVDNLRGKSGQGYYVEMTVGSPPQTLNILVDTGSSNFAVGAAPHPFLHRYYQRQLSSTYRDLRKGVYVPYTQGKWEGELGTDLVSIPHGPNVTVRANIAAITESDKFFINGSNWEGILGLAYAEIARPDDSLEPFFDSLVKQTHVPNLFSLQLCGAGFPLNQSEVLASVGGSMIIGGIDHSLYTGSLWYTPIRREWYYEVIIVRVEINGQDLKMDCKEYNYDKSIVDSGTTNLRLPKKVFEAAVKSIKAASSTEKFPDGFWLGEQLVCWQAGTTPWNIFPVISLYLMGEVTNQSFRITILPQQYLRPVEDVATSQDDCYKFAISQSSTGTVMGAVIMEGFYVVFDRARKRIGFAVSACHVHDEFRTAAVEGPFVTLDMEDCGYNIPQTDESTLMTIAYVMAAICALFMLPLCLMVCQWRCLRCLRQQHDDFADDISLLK
- experiment.summary: In Vitro BACE Cell-based Assay (HEK cell assay): Aβ40 in conditioned medium of cells stably expressing Amyloid Precursor Protein, sandwich ELISA
- measurement.context: Table III; IC50's in uM ranges; read-out: HEK cell assay
experimental.readout: IC50

# IC50 lookup, item CC(C)(C)COc1ccc2c(c1)[C@@]1(COC(N)=N1)c1cc(-c3cncnc3)cc(F)c1O2 [155a]
0.1 to 1 µM

# IC50 lookup, item COC(=O)/C=C/c1ccc2c(c1)[C@@]1(COC(N)=N1)c1cc(Br)ccc1O2 [compound 169]
> 5 µM

# IC50 lookup, item Cn1cncc1-c1ccc2c(c1)[C@]1(COC(N)=N1)c1cc(OCC(C)(C)C)ccc1O2 [compound 187]
1 to 5 µM

# IC50 lookup, item C[C@H]1OC(N)=N[C@@]12c1cc(OCC(C)(C)C)ccc1Oc1ccc(-c3cncnc3)cc12 [126d]
< 0.1 µM

# IC50 lookup, item C=C(C)COc1ccc2c(c1)[C@]1(COC(N)=N1)c1cc(-c3cccnc3)ccc1O2 [compound 146]
0.1 to 1 µM

# IC50 lookup, item CC(C)OCCOc1ccc2c(c1)[C@]1(COC(N)=N1)c1cc(-c3cccnc3)ccc1O2 [compound 181]
0.1 to 1 µM

# IC50 lookup, item CC1(COc2ccc3c(c2)[C@]2(COC(N)=N2)c2cc(-c4cccnc4)cnc2O3)COC1 [compound 165]
< 0.1 µM

# IC50 lookup, item CC(C)(C)C#Cc1ccc2c(c1)[C@]1(COC(N)=N1)c1cc(-c3ccc(F)nc3)ccc1O2 [147a]
0.1 to 1 µM

# IC50 lookup, item CC(C)(F)COc1ccc2c(c1)[C@]1(COC(N)=N1)c1cc(-c3cncnc3)cnc1O2 [compound 176]
0.1 to 1 µM

# IC50 lookup, item COc1cc2c(cc1F)Oc1ccc(-c3cncnc3)cc1[C@]21COC(N)=N1 [154a]
> 5 µM

# IC50 lookup, item CC(C)(C#N)COc1ccc2c(c1)[C@]1(COC(N)=N1)c1cc(-c3cncnc3)cnc1O2 [compound 167]
0.1 to 1 µM

# IC50 lookup, item CC(C)(C)CCc1ccc2c(c1)[C@]1(COC(N)=N1)c1cc(-c3ccc(F)nc3)ccc1O2 [153b]
0.1 to 1 µM

# IC50 lookup, item COC(C)(C)C#Cc1ccc2c(c1)[C@@]1(COC(N)=N1)c1cc(-c3cccnc3)cnc1O2 [compound 179]
0.1 to 1 µM

# IC50 lookup, item NC1=N[C@]2(CO1)c1cc(OCC3CCOCC3)ccc1Oc1ccc(-c3cncnc3)cc12 [compound 175]
< 0.1 µM

* * *

I'd appreciate it if you could supply IC50 values for the items below.
- tested.target: BACE1 (Homo sapiens, UniProt P56817)
- experiment.summary: In Vitro Enzymatic BACE FRET (Fluorescence Resonance Energy Transfer) Assay
- Assay type: biochemical
- measurement.context: in vitro BACE FRET enzyme assay, IC50 class symbols; read-out: BACE1 FRET assay
- Description: In Vitro Enzymatic BACE FRET (Fluorescence Resonance Energy Transfer) Assay (Enzyme Assay Data in the Example Tables I, II, III & IV) The assay buffer used in this screen is 0.05 M acetate, pH 4.2, 10% DMSO final, 100 uM genapol (which is a nonionic detergent, below its Critical Micelle Concentration). […] The FRET assay is terminated with by addition of Tris buffer, which raises the pH to neutrality, and the fluorescence is determined. […]

# IC50 lookup, item NC1=N[C@@]2(CO1)c1cc(-c3cncc(Cl)c3)ccc1Oc1cnc(-c3ccncc3)cc12
< 100 nM

# IC50 lookup, item CC(C)(C#N)COc1cnc2c(c1)[C@]1(COC(N)=N1)c1cc(-c3ccccc3F)ccc1O2
< 100 nM

# IC50 lookup, item N#Cc1ccc(-c2cc3c(cn2)Oc2ccc(-c4cccnc4F)cc2[C@@]32COC(N)=N2)cc1
< 100 nM

# IC50 lookup, item NC1=N[C@@]2(CO1)c1cc(-c3cc(Cl)ccc3F)ccc1Oc1cnc(-c3ccncc3)cc12
< 100 nM

# IC50 lookup, item NC1=N[C@@]2(CO1)c1cc(-c3cccnc3F)ccc1Oc1c(F)cc(C3CCOCC3)cc12
< 100 nM

# IC50 lookup, item COc1ccc2c(c1)[C@@]1(COC(N)=N1)c1cc(Br)cc(F)c1O2 [compound 406]
> 5000 nM

# IC50 lookup, item Cc1cncc(-c2ccc3c(c2)[C@@]2(COC(N)=N2)c2cc(Cl)ncc2O3)c1
100 to 1000 nM

# IC50 lookup, item Cc1cncc(-c2ccc3c(c2)[C@@]2(COC(N)=N2)c2cc(-c4ccncc4)ncc2O3)c1
< 100 nM

# IC50 lookup, item NC1=N[C@@]2(CO1)c1cc(-c3cccnc3N3CCOCC3)ccc1Oc1ccc(N3CCOCC3)cc12
100 to 1000 nM
